Consider the following binders; for each one, report its Molar Binding Ratio FIX/mAb.
Biological target: recombinant human Factor IX (rhFIX, Genetics Institute) (human) (UniProt P00740)
Sequence (P00740 47-461 limits assumed): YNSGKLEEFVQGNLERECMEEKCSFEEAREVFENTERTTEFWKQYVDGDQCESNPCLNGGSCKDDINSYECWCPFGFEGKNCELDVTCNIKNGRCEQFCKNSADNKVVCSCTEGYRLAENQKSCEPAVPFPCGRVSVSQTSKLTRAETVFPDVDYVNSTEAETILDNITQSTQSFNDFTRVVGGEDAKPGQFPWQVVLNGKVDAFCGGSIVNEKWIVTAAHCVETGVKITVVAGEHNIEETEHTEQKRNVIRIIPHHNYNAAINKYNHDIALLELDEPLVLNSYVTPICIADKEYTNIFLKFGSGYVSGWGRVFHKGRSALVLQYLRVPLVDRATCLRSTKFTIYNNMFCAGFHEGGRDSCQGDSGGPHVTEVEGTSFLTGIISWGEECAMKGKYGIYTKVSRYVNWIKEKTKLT
Test: titration calorimetry
Answer with the value and then the unit.

Worked examples, 3 binders total:
humanized anti-Factor IX monoclonal antibody SB 249417 (antibody, V domains shown) VH: QVQLVQSGSELKKPGASVKVSCKASGYTFTNYGMNWVRQAPGQGLKWMGWINTRNGKSTYVDDFKGRFVFSLDSSVSTAYLQISSLKADDTAVYYCTREGNMDGYFPFTYWGQGTLVTVSS VL: QIVLTQSPSSLSASVGDRVTITCRASSSVNYMHWYQQKPGKAPKPWIYATSNLASGVPSRFSGSGSGTDYTFTISSLQPEDIATYYCQQWSINPRTFGQGTKVEIKR    1.5 FIX/mAb
humanized anti-Factor IX monoclonal antibody SB 257732 (antibody, V domains shown) VH: QIQLVQSGSELKKPGASVKVSCKASGYTFTNYGMNWVRQAPGQGLEWMGWINTRNGKSTYVDDFKGRFVFSLDTSVSTAYLQISSLKAEDTAVYFCTREGNMDGYFPFTYWGQGTLVTVSS VL: QIVLTQSPSSLSASVGDRVTITCRASSSVNYMHWYQQKPGKAPKPWIYATSNLASGVPSRFSGSGSGTDYTLTISSLQPEDFATYYCQQWSINPRTFGGGTKLEIKR    1.8 FIX/mAb
humanized anti-Factor IX monoclonal antibody SB 249413 (antibody, V domains shown) VH: QVQLVQSGSELKKPGASVKVSCKASGYTFTNYGMNWVRQAPGQGLEWMGWINTRNGKSTYVDDFKGRFVFSLDTSVSTAYLQISSLKADDTAVYYCAREGNMDGYFPFTYWGQGTLVTVSS VL: EIVLTQSPATLSLSPGERATLSCRASSSVNYMHWYQQRPGQAPRLLIYATSNLASGIPARFSGSGSGTDFTLTISSLEPEDFAVYYCQQWSINPRTFGGGTKVEIKR    1.9 FIX/mAb

Give its Molar Binding Ratio FIX/mAb value. Item: humanized anti-Factor IX monoclonal antibody SB 249415 (antibody, V domains shown) VH: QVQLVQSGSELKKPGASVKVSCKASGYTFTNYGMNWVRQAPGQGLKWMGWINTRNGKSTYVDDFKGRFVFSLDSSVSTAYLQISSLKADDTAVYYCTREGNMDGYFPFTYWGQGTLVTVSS VL: EIVLTQSPATLSLSPGERATLSCRASSSVNYMHWYQQRPGQAPKPWIYATSNLASGVPARFSGSGSGTDFTLTISSLEPEDFAVYYCQQWSINPRTFGGGTKVEIKR
1.7 FIX/mAb
